experiment: Selectivity ratio of IC50 for cytotoxicity against human MES-SA cells assessed as cell growth inhibition in presence of P-gp inhibitor Tariquidar to IC50 for cytotoxicity against multidrug resistance human MES-SA/Dx5 cells assessed as cell growth inhibition in presence of P-gp inhibitor Tariquidar; assay type: functional
Listed next: entries and their corresponding Ratio IC50.

| molecule | Ratio IC50 |
| --- | --- |
| COCc1cc(CN2CCCCC2)c(O)c2ncccc12 | 1.3 |
| CC(C)OCc1cc(CN2CCN(c3ccccc3)CC2)c(O)c2ncccc12 | 1.5 |
| CCCOCc1cc(CN2CCN(C)CC2)c(O)c2ncccc12 | 1.7 |
| COCc1cc(CN2CCC(C)CC2)c(O)c2ncccc12 | 1.4 |
| CCN1CCN(C(c2cccnc2)c2ccc3cccnc3c2O)CC1 (stereo unspecified) | 1 |
| Oc1cccc2cccnc12 [OXYQUINOLINE] | 2.3 |
| CCN1CCN(C(c2cc(Cl)c3cccnc3c2O)N2CCCC2)CC1 (stereo unspecified) | 1.3 |
| Oc1c(CN2CCCC2)cc(Br)c2cccnc12 | 1.5 |
| Oc1c(CN2CCOCC2)cc(Br)c2cccnc12 | 1.5 |
| CCOCc1cc(CN2CCC(C)CC2)c(O)c2ncccc12 | 1.5 |
| CCOCc1cc(CN2CCN(c3ccccc3)CC2)c(O)c2ncccc12 | 1.5 |
| Oc1c(CN2CCCCCC2)cc(Cl)c2cccnc12 | 1.3 |
| CCOCc1cc(CN2CCN(C)CC2)c(O)c2ncccc12 | 1.3 |
| CCCOCc1cc(CN2CCCCC2)c(O)c2ncccc12 | 1.5 |
| COCc1cc(CN2CCCC2)c(O)c2ncccc12 | 3 |
| Oc1c(C(c2ccncc2)N2CCOCC2)ccc2cccnc12 (stereo unspecified) | 1.4 |
| COCc1cc(CN2CCOCC2)c(O)c2ncccc12 | 1.1 |
| CCCOCc1cc(CN2CCN(c3ccccc3)CC2)c(O)c2ncccc12 | 1.7 |
| CCOCc1cc(CN2CCCC2)c(O)c2ncccc12 | 1.7 |
| Oc1c(C(c2ccccn2)N2CCCCC2)cc(Cl)c2cccnc12 (stereo unspecified) | 2.5 |
| CC(C)OCc1cc(CN2CCCCC2)c(O)c2ncccc12 | 1.3 |

Source: ChEMBL document CHEMBL5154931
